# Target of assay: IDO1 (Homo sapiens)
# Sequence (P14902 whole entry, species assumed): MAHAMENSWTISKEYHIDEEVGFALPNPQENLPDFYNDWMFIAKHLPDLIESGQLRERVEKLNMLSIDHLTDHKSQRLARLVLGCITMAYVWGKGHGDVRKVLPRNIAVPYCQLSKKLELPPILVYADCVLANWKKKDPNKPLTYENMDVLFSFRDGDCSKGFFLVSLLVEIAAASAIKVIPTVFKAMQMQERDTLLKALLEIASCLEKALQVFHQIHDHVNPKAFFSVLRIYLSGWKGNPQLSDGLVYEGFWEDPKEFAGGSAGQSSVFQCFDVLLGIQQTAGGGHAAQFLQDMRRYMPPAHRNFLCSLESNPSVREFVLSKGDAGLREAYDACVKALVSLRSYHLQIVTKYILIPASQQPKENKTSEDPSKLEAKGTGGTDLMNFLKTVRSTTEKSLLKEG
# Method notes: Biochemical IDO1 assay (NFK GreenScreen)
# Design: Recombinant full-length IDO1 (Seegers, N., et al.) and all other assay components were diluted in IDO1 reaction buffer; made in house
# Experimental parameters: less active / most active isomer of the pair; assay not given
Quantity kind: relative activity of separated isomers

Answered cases to consult:
compound="C[C@@H](c1ccccc1)N1CC(=O)N(O)C1c1cccc(I)c1 (single isomer, unassigned) [Example 140b]" target_of_assay="IDO1 (Homo sapiens)" obs_value="most active isomer"
compound="NS(=O)(=O)NCC#Cc1cc(F)c(C(=O)N2CC(=O)N(O)C2c2cccc(Br)c2)c(F)c1 (single isomer, unassigned) [Example 147b]" target_of_assay="IDO1 (Homo sapiens)" obs_value="most active isomer"
compound="O=C1CN(C(=O)c2c(F)cccc2Cl)C(c2ccc(F)c(Br)c2)N1O (single isomer, unassigned) [Example 143b]" target_of_assay="IDO1 (Homo sapiens)" obs_value="most active isomer"
compound="C[C@@H](c1ccccc1)N1CC(=O)N(O)C1c1cccc(Br)c1 (single isomer, unassigned) [Example 139b]" target_of_assay="IDO1 (Homo sapiens)" obs_value="most active isomer"
compound="O=C1CN(Cc2ccccc2F)C(c2cccc(I)c2)N1O (single isomer, unassigned) [Example 146a]" target_of_assay="IDO1 (Homo sapiens)" obs_value="less active isomer"

The recorded relative activity of separated isomers for O=C1CN(Cc2c(F)cccc2F)C(c2cccc(Br)c2)N1O (single isomer, unassigned) [Example 145a] is less active isomer

The recorded relative activity of separated isomers for O=C1CN(C(=O)c2c(F)cc(C#CC3CC3)cc2F)C(c2cccc(Br)c2)N1O (single isomer, unassigned) [Example 144b] is most active isomer

The recorded relative activity of separated isomers for CC(c1c(F)cccc1F)N1CC(=O)N(O)C1c1cccc(Br)c1 (stereo not shown) [Example 141a] is less active isomer

The recorded relative activity of separated isomers for O=C1CN(C(=O)c2c(F)cccc2F)C(c2cccc(Br)c2)N1O (single isomer, unassigned) [Example 142a] is less active isomer

The recorded relative activity of separated isomers for O=C1CN(C(=O)c2c(F)cc(C#CC3CC3)cc2F)C(c2cccc(Br)c2)N1O (single isomer, unassigned) [Example 144a] is less active isomer

The recorded relative activity of separated isomers for O=C1CN(Cc2ccccc2F)C(c2cccc(I)c2)N1O (single isomer, unassigned) [Example 146b] is most active isomer

The recorded relative activity of separated isomers for O=C1CN(C(=O)c2c(F)cccc2F)C(c2cccc(Br)c2)N1O (single isomer, unassigned) [Example 142b] is most active isomer

The recorded relative activity of separated isomers for C[C@@H](c1ccccc1)N1CC(=O)N(O)C1c1cccc(Br)c1 (single isomer, unassigned) [Example 139a] is less active isomer

The recorded relative activity of separated isomers for C[C@@H](c1ccccc1)N1CC(=O)N(O)C1c1cccc(I)c1 (single isomer, unassigned) [Example 140a] is less active isomer

The recorded relative activity of separated isomers for O=C1CN(C(=O)c2c(F)cccc2Cl)C(c2ccc(F)c(Br)c2)N1O (single isomer, unassigned) [Example 143a] is less active isomer

The recorded relative activity of separated isomers for O=C1CN(Cc2c(F)cccc2F)C(c2cccc(Br)c2)N1O (single isomer, unassigned) [Example 145b] is most active isomer
